# credit: the supplement of paper PMC13380429

System: A549-ACE2
Experiment: drug-induced phospholipidosis relative to tamoxifen; higher = more phospholipidosis
Conditions: 0.833333 µM; 24 h

- record_smiles: "O=c1oc(-c2ccc(C(F)(F)F)cc2)nn1Cc1cc(Cl)ccc1O"
  drug-induced phospholipidosis [%]: -1.2
- record_smiles: "CNC(=O)c1cc(Oc2ccc(NC(=O)Nc3ccc(Cl)c(C(F)(F)F)c3)cc2)ccn1"
  drug-induced phospholipidosis [%]: -4.32
- record_smiles: "CC(C)n1cnc2c(NCCc3ccc(O)cc3)nc(-c3csc4ccccc34)nc21"
  drug-induced phospholipidosis [%]: 1.64
- record_smiles: "Cn1c(NC[C@@H](N)Cc2ccccc2)nc(-c2ccncc2)c(-c2ccc3ccccc3c2)c1=O"
  drug-induced phospholipidosis [%]: -2.85
- record_smiles: "Cc1nnc2n1-c1sc(CCC(=O)N3CCOCC3)cc1C(c1ccccc1Cl)=NC2"
  drug-induced phospholipidosis [%]: -1.14
- record_smiles: "Nc1ccc(C(=O)Nc2cccc(-c3nc(N4CCOCC4)c4oc5ncccc5c4n3)c2)cn1"
  drug-induced phospholipidosis [%]: 16.4
- record_smiles: "CCCCCCCCNC(=O)/C(C#N)=C/c1cn(CCCN(C)C)c2ccccc12"
  drug-induced phospholipidosis [%]: 56.4

====

Item-by-item account of cell viability
System: HepG2
Assay: cell viability relative to DMSO; higher = less toxic
Details: 72 h; 1 nM
endpoint_name: cell viability (%)

- compound: "COc1ccccc1S(=O)(=O)Nc1ccc2c(c1)CN(C)C(=O)N2"
  assay_system: "HepG2"
  data_value: 108
- compound: "CO/N=C(\\C(=O)N[C@@H]1C(=O)N2C(C(=O)O)=C(CSc3nc(C)c(CC(=O)O)s3)CS[C@H]12)c1csc(N)n1"
  assay_system: "HepG2"
  data_value: 88.6
- compound: "O=C(c1ccc(Cl)o1)N1CC2CNCC2C1 (centres undefined)"
  assay_system: "HepG2"
  data_value: 99.3
- compound: "O=C(O)c1ccc(N2C(=O)/C(=C/c3ccc(-c4ccc([N+](=O)[O-])cc4)o3)C=C2c2ccccc2)cc1"
  assay_system: "HepG2"
  data_value: 104

====

System: HepG2
Assay: cell viability relative to DMSO; higher = less toxic
Settings: 72 h; 10 nM

- molecule: "CC(=O)NC1CCSC1=O (configuration not stated) [citiolone]"
  units: "%"
  cell viability: 95.8
- molecule: "O=C(O)C1=C(CSc2nnnn2CS(=O)(=O)O)CS[C@@H]2[C@H](NC(=O)[C@H](O)c3ccccc3)C(=O)N12 [Cefonicid (sodium)]"
  units: "%"
  cell viability: 100
- molecule: "CC(C)Cn1cnc2c(N)nc3ccccc3c21 [imiquimod]"
  units: "%"
  cell viability: 95.5
- molecule: "CC(C)C1=C2[C@H]3CC[C@@H]4[C@@]5(C)CC[C@H](OC(=O)CC(C)(C)C(=O)O)C(C)(C)[C@@H]5CC[C@@]4(C)[C@]3(C)CC[C@@]2([C@@H](O)CN(CCN(C)C)Cc2ccc(Cl)cc2)CC1=O"
  units: "%"
  cell viability: 105
- molecule: "Cc1c(O)cccc1C(=O)N[C@@H](CSc1ccccc1)[C@H](O)CN1C[C@H]2CCCC[C@H]2C[C@H]1C(=O)NC(C)(C)C [nelfinavir]"
  units: "%"
  cell viability: 96.7
- molecule: "CCS(=O)(=O)N(C)[C@H]1c2cc(C#N)ccc2OC(C)(C)[C@@H]1O [chromanol-293B-(-)-[3R,4S]]"
  units: "%"
  cell viability: 102
- molecule: "N#CCNC(=O)c1ccc(-c2ccnc(Nc3ccc(N4CCOCC4)cc3)n2)cc1 [cyt387]"
  units: "%"
  cell viability: 105
- molecule: "O=C(NC1CCNCC1)c1n[nH]cc1NC(=O)c1c(Cl)cccc1Cl [AT-7519]"
  units: "%"
  cell viability: 99.4
- molecule: "Cc1ccccc1C(=O)Nc1ccc(C(=O)N2CCCC(N(C)C)c3ccccc32)cc1 (configuration not stated) [mozavaptan]"
  units: "%"
  cell viability: 99.5
- molecule: "CNC(=O)[C@H]1O[C@@H](n2cnc3c(NCc4cccc(I)c4)ncnc32)[C@H](O)[C@@H]1O [IB-MECA]"
  units: "%"
  cell viability: 68.7
- molecule: "C[C@@]1(O)[C@H](O)[C@@H](CO)O[C@H]1n1ccc(N)nc1=O [NM107]"
  units: "%"
  cell viability: 107
- molecule: "CCc1cnn2c(NCc3ccc[n+]([O-])c3)cc(N3CCCC[C@H]3CCO)nc12 [dinaciclib]"
  units: "%"
  cell viability: 55.6
- molecule: "C[C@H](N)Cn1ccc2cc(F)c(Cl)cc21 [Ro-60-0175]"
  units: "%"
  cell viability: 101
- molecule: "COc1ccccc1S(=O)(=O)Nc1ccc2c(c1)CN(C)C(=O)N2 [PFI-1]"
  units: "%"
  cell viability: 103
- molecule: "O=C(NCc1ccccn1)Nc1nnc(-c2ccco2)o1 [NK-252]"
  units: "%"
  cell viability: 97.4
- molecule: "CNC(=N)NCCC[C@H](N)C(=O)O [targinine]"
  units: "%"
  cell viability: 103
- molecule: "Cn1c(NC[C@@H](N)Cc2ccccc2)nc(-c2ccncc2)c(-c2ccc3ccccc3c2)c1=O [AMG-548]"
  units: "%"
  cell viability: 108
